Target: T1, Ets-1ΔN331 (minimal ETS domain) (mouse (murine)?, UniProt P27577 331-440)
T1 sequence: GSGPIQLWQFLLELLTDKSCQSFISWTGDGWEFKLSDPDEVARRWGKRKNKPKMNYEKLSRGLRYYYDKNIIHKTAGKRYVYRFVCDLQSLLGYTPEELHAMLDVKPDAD
Assay: competitive fluorescence anisotropy
value.kind: pKd
pKd here is simply -log10 of the concentration when that concentration is written in mol/L.

Problem: Report pKd for SC1 unmethylated (dsDNA) DNA 1: CGGCCAAGCCGGAAGTGAGTGCC DNA 2: GGCACTCACTTCCGGCTTGGCCG please.
Solution: 9.85
